Tested on: Escherichia coli TOP10;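 note: peptides expressed intracellularly from a pBAD plasmid library in pooled LB shake-flask culture, induced with 0.3% L-arabinose, DNA abundance read by NGS, three biological replicates, DESeq2 with apeglm shrinkage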
Assay: shrunken log2 fold change of peptide-encoding DNA abundance (4.5 h post-induction vs induction); higher = less antimicrobial activity (less host growth inhibition)
Conditions: time post-induction: 4.5 h; library: site-saturation at positions 5, 18, 19, 20
Categories are assigned from the measured shrunken log2 fold change using these intervals: low = under -0.2, intermediate = from -0.2 up to 0.1, high = 0.1 and over

Below are worked cases with known answers.
RRIRGRPPRLPRPRPRPAMCPRP high
RRIRKRPPRLPRPRPRPWMNPRP intermediate
RRIRDRPPRLPRPRPRPMACPRP intermediate
RRIRARPPRLPRPRPRPDWMPRP high
RRIRSRPPRLPRPRPRPKMIPRP low
RRIRFRPPRLPRPRPRPQGKPRP low
RRIRNRPPRLPRPRPRPTKTPRP intermediate
RRIRNRPPRLPRPRPRPYLVPRP intermediate
RRIRARPPRLPRPRPRPHRGPRP high
RRIRMRPPRLPRPRPRPAPAPRP high

Please indicate the class for "RRIRTRPPRLPRPRPRPHAEPRP" based on its shrunken log2 fold change.
high

Which shrunken log2 fold change category applies to "RRIRSRPPRLPRPRPRPFQGPRP" here?
intermediate

Quick check: band for "RRIRIRPPRLPRPRPRPPPDPRP"
high

Into which bin does this sequence go? "RRIRHRPPRLPRPRPRPWWWPRP"
intermediate

Lab note: which band did "RRIRIRPPRLPRPRPRPPYMPRP" land in?
low

Assign a category based on measured shrunken log2 fold change for "RRIRARPPRLPRPRPRPLNAPRP" and give only the class name.
high

GET /class?item= "RRIRLRPPRLPRPRPRPIAIPRP"
high
